# apparent Kd (screen) per record follows
Study System: T1, TNFR1 (Homo sapiens, UniProt P19438)
T1 chain: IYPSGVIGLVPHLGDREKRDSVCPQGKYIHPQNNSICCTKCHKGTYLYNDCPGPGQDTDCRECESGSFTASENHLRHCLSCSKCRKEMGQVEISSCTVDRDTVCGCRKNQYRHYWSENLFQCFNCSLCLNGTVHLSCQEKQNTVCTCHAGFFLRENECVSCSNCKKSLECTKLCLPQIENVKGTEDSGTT
Method Description: yeast display SC50
Assay Endpoint: apparent Kd (screen) (nM)

- Binder: "V57D (designed binder) MTLQELLREEALRRAEAEAFRYALELLAEKFPEQKEYLLDLAEEIESQIRSLSGVDDEDVRKFLDKEWAWVKELLAEHPAELAEVEAARAARLAELRAEVEAKVAA"
  Assay Endpoint: "apparent Kd (screen)"
  Result Number: 3.99
- Binder: "R61E (designed binder) MTLQELLREEALRRAEAEAFRYALELLAEKFPEQKEYLLDLAEEIESQIRSLSGVDVEDVEKFLDKEWAWVKELLAEHPAELAEVEAARAARLAELRAEVEAKVAA"
  Assay Endpoint: "apparent Kd (screen)"
  Result Number: 2.73
